test.target: HIV-1 Env of isolate MGRM-C-001 (subtype C) (HIV-1)
protocol.description: cell-based or functional assay
property.name: IC50 (µg/mL), pseudovirus neutralization

// known answers, use as guide
Query :: What measured IC50 (µg/mL), pseudovirus neutralization goes with PGT-123 (antibody, V domains shown) VH: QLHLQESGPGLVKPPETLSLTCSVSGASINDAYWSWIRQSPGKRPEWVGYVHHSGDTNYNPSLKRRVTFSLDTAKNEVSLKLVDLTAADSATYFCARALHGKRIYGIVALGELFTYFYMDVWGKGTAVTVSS VL: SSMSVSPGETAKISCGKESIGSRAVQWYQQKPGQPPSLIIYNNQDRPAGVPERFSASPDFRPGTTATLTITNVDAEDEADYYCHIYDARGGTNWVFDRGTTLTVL ?
Result :: 42.4 µg/mL

Query :: What measured IC50 (µg/mL), pseudovirus neutralization goes with PGT-127 (antibody, V domains shown) VH: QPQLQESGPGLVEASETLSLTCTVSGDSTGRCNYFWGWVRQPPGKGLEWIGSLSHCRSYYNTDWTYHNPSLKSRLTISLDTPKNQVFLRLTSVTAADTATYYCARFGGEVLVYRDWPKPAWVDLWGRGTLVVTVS VL: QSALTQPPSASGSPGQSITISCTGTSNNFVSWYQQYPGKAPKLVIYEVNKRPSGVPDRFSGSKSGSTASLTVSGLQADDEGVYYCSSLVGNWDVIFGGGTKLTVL ?
Result :: > 50 µg/mL

Query :: What measured IC50 (µg/mL), pseudovirus neutralization goes with PGT-125 (antibody, V domains shown) VH: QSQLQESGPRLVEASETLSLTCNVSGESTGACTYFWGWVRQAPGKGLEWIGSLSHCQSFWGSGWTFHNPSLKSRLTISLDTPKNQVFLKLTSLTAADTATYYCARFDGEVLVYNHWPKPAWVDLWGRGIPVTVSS VL: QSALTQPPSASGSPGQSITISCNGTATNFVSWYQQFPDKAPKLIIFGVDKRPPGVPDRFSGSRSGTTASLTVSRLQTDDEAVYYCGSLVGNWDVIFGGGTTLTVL ?
Result :: > 50 µg/mL

Next, consider the following binder.
Query :: What measured IC50 (µg/mL), pseudovirus neutralization goes with PGT-126 (antibody, V domains shown) VH: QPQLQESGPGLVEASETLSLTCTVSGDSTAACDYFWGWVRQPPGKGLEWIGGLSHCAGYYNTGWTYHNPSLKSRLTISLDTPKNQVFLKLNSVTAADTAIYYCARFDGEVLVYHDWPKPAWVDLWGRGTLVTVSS VL: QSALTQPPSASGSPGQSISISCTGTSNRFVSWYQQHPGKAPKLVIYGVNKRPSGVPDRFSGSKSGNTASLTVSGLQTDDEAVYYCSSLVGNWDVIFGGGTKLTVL ?
Result :: > 50 µg/mL
